// data source = ChEMBL document CHEMBL1149659

system: 3T3-L1 (Mus musculus); experiment: Inhibition of [1-14C]sodium acetate uptake in mouse 3T3-L1 cells at 2 uM
# inhibition per record follows
Numeric answer plus unit only.

Solved entries (count: 3):
compound_smiles=CCOC(=O)COc1c(C)c2c(c(O)c1C/C=C(\C)CCC(=O)OC)C(=O)OC2 measurement_type=inhibition readout_value=0%
compound_smiles=COc1c(C)c2c(c(OC(C)=O)c1C/C=C(\C)CCC(=O)O)C(=O)OC2 measurement_type=inhibition readout_value=86%
compound_smiles=COCCOCOc1c(C/C=C(\C)CCC(=O)OC)c(O)c(C)c2c1C(=O)OC2 measurement_type=inhibition readout_value=10%

Incoming: Please give the measured inhibition for this molecule: "COC(=O)CC/C(C)=C/Cc1c(O)c2c(c(C)c1OC(=O)c1ccncc1)COC2=O"
Outgoing: 3%
